Measured DC50 values are reported for all entries that follow.
system_tested: CDK2 (Homo sapiens, UniProt P24941)
Construct: endogenous in cells; host or cells: MKN1 cells
run_description: CDK2 degradation in MKN1 cells (AlphaLISA)
Format: cell-based
condition_set: 14 h incubation, read-out: CDK2 degradation 14 h: Mean external-Abs DC50

Consider the following illustrative entries.
Cc1cc(S(=O)(=O)NCCOCC2CCN(c3ccc(N4CCC(=O)NC4=O)cc3)CC2)ccc1Nc1ncc2cc(Cl)c(=O)n(C3CCCC3)c2n1; > 1000 nM
Cc1cc(S(=O)(=O)C2CC3(CCN(CC4CCN(c5ccc(F)c(NC6CCC(=O)NC6=O)c5)CC4)CC3)C2)ccc1Nc1ncc2cc(Cl)c(=O)n(C3CCCC3)c2n1 (stereo not drawn); > 1000 nM
Cc1cc(S(=O)(=O)NC2CCC(CN3CCN(c4cccc(C5CCC(=O)NC5=O)c4)CC3)CC2)ccc1Nc1ncc(C(F)(F)F)c(N2CCCC(C)(O)C2)n1 (stereo not drawn); > 1000 nM
Cc1cc(S(=O)(=O)CCCO[C@H]2CC[C@H](CN3CCC(c4ccc5c(c4)n(C4CCC(=O)NC4=O)c(=O)n5C)CC3)CC2)ccc1Nc1nccc(-c2cnc(C)n2C(C)C)n1 (stereo partly drawn); < 100 nM
Cc1cc(S(=O)(=O)C2CC3(CCN(CC4CCN(c5cccc(NC6CCC(=O)NC6=O)c5)CC4)CC3)C2)ccc1Nc1ncc2cc(Cl)c(=O)n(C3CCCC3)c2n1 (stereo not drawn); < 100 nM
Cc1cc(S(=O)(=O)N2CCC(CN(C)C3CCN(c4cccc5c(N6CCC(=O)NC6=O)cncc45)CC3)CC2)ccc1Nc1ncc2cc(Cl)c(=O)n(C3CCCC3)c2n1; < 100 nM
Cc1cc(S(=O)(=O)C2CC3(CCN(CC4CCN(c5ccc6c(c5F)n(C)c(=O)n6C5CCC(=O)NC5=O)CC4)CC3)C2)ccc1Nc1ncc2c(n1)N(C1CCCC1)C(=O)N(C)C2 (stereo not drawn); < 100 nM
Cc1cc(S(=O)(=O)C2CC3(CCN(CC4CCN(c5cccc6c5n(C)c(=O)n6C5CCC(=O)NC5=O)CC4)CC3)C2)ccc1Nc1ncc(C(F)(F)F)c(N2CCC(C(C)(C)O)C2)n1 (stereo not drawn) [I-841]; < 100 nM
Cc1cc(S(=O)(=O)C2CC3(CCN(CCOC4CN(c5cccc6c5n(C)c(=O)n6C5CCC(=O)NC5=O)C4)CC3)C2)ccc1Nc1ncc(C(F)(F)F)c(N2CCCC(C)(O)C2)n1 (stereo not drawn); 100 to 500 nM
Cc1cc(S(=O)(=O)NC2CCC(CN3CCN(c4cccc(C5CCC(=O)NC5=O)c4)CC3)CC2)ccc1Nc1ncc2c(n1)N(C1CCCC(O)C1)C(=O)C21CC1 (stereo not drawn); > 1000 nM

Notebook: Cc1cc(S(=O)(=O)N2CCC(N3CCC(CN(C)c4cccc5c4n(C)c(=O)n5C4CCC(=O)NC4=O)CC3)CC2)ccc1Nc1ncc2cc(C(F)F)c(=O)n(C3CCCC34CC4)c2n1 (stereo not drawn) , DC50 read as < 100 nM

Notebook: CC1(O)CCCN(c2nc(Nc3ccc(S(=O)(=O)NC4CCC(CN5CCN(c6ccc(C7CCC(=O)NC7=O)c(F)c6)CC5)CC4)cc3)ncc2C(F)(F)F)C1 (stereo not drawn) , DC50 read as < 100 nM

Notebook: Cc1cc(S(=O)(=O)N2CCC(CN(C)C3CCN(c4cccc5c4n(C)c(=O)n5C4CCC(=O)NC4=O)CC3)CC2)ccc1Nc1ncc(C(F)(F)F)c(C2CCCCC2)n1 (stereo not drawn) , DC50 read as 100 to 500 nM

Notebook: Cc1cc(S(=O)(=O)C2CCN(CCC3CCN(c4cccc5c4n(C)c(=O)n5C4CCC(=O)NC4=O)CC3)CC2)ccc1Nc1ncc2cc(Cl)c(=O)n(C(C)C)c2n1 (stereo not drawn) , DC50 read as < 100 nM

Notebook: Cc1cc(S(=O)(=O)N[C@H](C)CO[C@H]2CC[C@H](CN3CCN(c4ccc5c(c4F)n(C)c(=O)n5C4CCC(=O)NC4=O)CC3)CC2)ccc1Nc1ncc2ccc(=O)n(C3CCCC3)c2n1 (stereo partly drawn) , DC50 read as < 100 nM

Notebook: Cc1cc(S(=O)(=O)NC2CC(N3CCN(CC4CCN(c5ccc(NC6CCC(=O)NC6=O)c(Cl)c5)CC4)CC3)C2)ccc1Nc1ncc(C(F)(F)F)c(N2CCCC(C)(O)C2)n1 (stereo not drawn) , DC50 read as < 100 nM

Notebook: Cc1cc(S(=O)(=O)NC2CCC(CN3CCN(c4ncc(C5CCC(=O)NC5=O)cc4F)CC3)CC2)ccc1Nc1ncc(C(F)(F)F)c(N2CCCC(C)(O)C2)n1 (stereo not drawn) , DC50 read as < 100 nM

Notebook: Cc1cc(S(=O)(=O)NC2CC(N3CCN(CC4CCN(c5cccc6c5n(C)c(=O)n6C5CCC(=O)NC5=O)CC4)CC3)C2)ccc1Nc1ncc(C(F)(F)F)c(N2CCCC(C)(O)C2)n1 (stereo not drawn) [I-663] , DC50 read as < 100 nM

Notebook: Cc1cc(S(=O)(=O)NCCOC2CCC3(CC2)CCN(CCCc2ccc4c(c2)n(C)c(=O)n4C2CCC(=O)NC2=O)CC3)ccc1Nc1ncc2ccc(=O)n(C3CCCC3)c2n1 (stereo not drawn) , DC50 read as < 100 nM

Notebook: Cc1cc(S(=O)(=O)C2CC3(CCN(CC4CCN(c5ccc6c(c5F)n(C)c(=O)n6C5CCC(=O)NC5=O)CC4)CC3)C2)ccc1Nc1ncc2cc(Cl)c(=O)n(C(C)C(C)(C)O)c2n1 (stereo not drawn) , DC50 read as > 1000 nM

Notebook: Cc1cc(S(=O)(=O)NC2CC(N3CCN(CC4CCN(c5cccc(C6CCC(=O)NC6=O)c5)CC4)CC3)C2)ccc1Nc1ncc(C(F)(F)F)c(N2CCCC(C)(O)C2)n1 (stereo not drawn) , DC50 read as 100 to 500 nM
